- protocol.text: APR_HepG2_MicrotubuleCSK_72hr: Apredica 72-hour HepG2 Assay for Microtubule CSK Stabilty (AID 2282919)
- experimental.parameters: HepG2 microtubule cytoskeleton, high-content imaging, actives raise or lower the signal
The source made the active and inactive calls. How the source made its calls: active means hit-call score of the fitted dose curve at least 0.9, where 1 is the maximum; inactive means score below 0.9.
Hi there, use one of these labels in your reply, thanks! 1 = active, 0 = inactive

What outcome does the record of this test show for CC1=NNC(=O)N(/N=C/c2cccnc2)C1 ?
0

Call for entry COc1cc(OC)nc(Sc2cccc(Cl)c2C(=O)O)n1 :
0

Which outcome was assigned to CCOP(=S)(OCC)OC(Cl)C(Cl)(Cl)Cl (stereo not given) in this test?
1

Please let me know the test result on file for CCOC(=O)COc1cc(-c2nn(C)c(OC(F)F)c2Cl)c(F)cc1Cl .
0

What was the test verdict on CN(C)NC(=O)CCC(=O)O ?
0

Call for entry CC(=NC#N)N(C)Cc1ccc(Cl)nc1 :
0

For O=C(O)c1cc(Oc2ccc(C(F)(F)F)cc2Cl)ccc1[N+](=O)[O-] , what call appears in the results of this test?
0

Record lookup: outcome of this test for COP(=O)(NC(C)=O)SC (stereo not given) ?
0

Which outcome did this test record for the compound CCOP(=O)(NC(C)C)Oc1ccc(SC)c(C)c1 (stereo not given) ?
0

Lab log entry: CCCOc1nn(C(=O)NS(=O)(=O)c2ccccc2C(=O)OC)c(=O)n1C — outcome as called in the assay?
0

GET /call?item= FC(F)C(F)(F)OCC(Cn1cncn1)c1ccc(Cl)cc1Cl (stereo not given) returns the recorded outcome of this test.
1

Fill in: this test's call for COP(=O)(OC)SCn1c(=O)oc2cc(Cl)cnc21 is ___
1

Please state the recorded outcome for this compound: CCOC(=O)CC(SP(=O)(OC)OC)C(=O)OCC (stereo not given)
0

Assay result, entry C[N+]1(C)CCCCC1 — outcome?
0

Which outcome did this test record for the compound COP(=O)(OC)C(O)C(Cl)(Cl)Cl (stereo not given) ?
0

What did the test return for CC(C)[C@H](C(=O)O[C@H](C#N)c1cccc(Oc2ccccc2)c1)c1ccc(Cl)cc1 ?
0

Each compound tested received a call. Report the one for COP(=O)(OC)OC(Br)C(Cl)(Cl)Br (stereo not given) .
0

Per the assay record, what outcome was assigned to CCCOCC(=Nc1ccc(Cl)cc1C(F)(F)F)n1ccnc1 ?
0

What classification did CON=C(C(=O)OC)c1ccccc1CON=C(C)c1cccc(C(F)(F)F)c1 end up with in this test?
1

Record lookup: outcome of this test for CCCSP(=O)(OCC)SCCC ?
0

Just curious, what result did Nc1c(Cl)cc([N+](=O)[O-])cc1Cl get here?
0

Name the outcome recorded for CNC(=O)Oc1cccc2c1OC(C)(C)O2 in the assay.
0

Hi, do you know how CCOP(=S)(OCC)Oc1ccc([N+](=O)[O-])cc1 came out in this test?
0

GET /call?item= CC(C)N(C(=O)SCC(Cl)=C(Cl)Cl)C(C)C returns the recorded outcome of this test.
1

Name the outcome recorded for CN(C)[C@@H]1C(=O)C(C(N)=O)=C(O)[C@@]2(O)C(=O)C3=C(O)c4c(O)cccc4[C@@](C)(O)[C@H]3[C@H](O)[C@@H]12 in the assay.
0
